Biological target: T1, human LAG-3 expressed on cells (human, UniProt P18627 23-525)
T1 sequence: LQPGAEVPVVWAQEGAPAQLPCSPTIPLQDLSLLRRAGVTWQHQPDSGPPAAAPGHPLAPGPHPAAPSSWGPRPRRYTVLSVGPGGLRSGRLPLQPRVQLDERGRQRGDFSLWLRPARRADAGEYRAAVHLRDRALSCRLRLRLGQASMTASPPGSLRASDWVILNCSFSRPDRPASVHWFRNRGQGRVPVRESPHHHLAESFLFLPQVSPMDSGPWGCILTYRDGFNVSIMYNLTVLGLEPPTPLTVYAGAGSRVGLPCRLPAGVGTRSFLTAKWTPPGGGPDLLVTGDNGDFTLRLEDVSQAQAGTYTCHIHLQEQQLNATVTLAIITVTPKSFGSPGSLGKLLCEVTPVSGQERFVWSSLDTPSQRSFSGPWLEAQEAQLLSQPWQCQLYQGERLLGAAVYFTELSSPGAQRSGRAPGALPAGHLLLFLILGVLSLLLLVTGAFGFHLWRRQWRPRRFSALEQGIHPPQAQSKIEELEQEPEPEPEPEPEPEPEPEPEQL
Assay: cell-based or functional assay
experimental.endpoint: EC50 (M), NFAT-Luciferase Reporter Gene assay (LAG-3:MHCII)
# number only, unit M dropped from output

[Q] Item VH1.1-4GS-VH1.1-His6 (VHH) EVQLVESGGGVVRPGGSLRLSCSASGFTFDDYGMSWVRQAPGKGLEWVSGIHWNGGNSGYADSVKGRFTISRDNAKNSLYLQMNSLRAEDTALYYCARIPREDCSSASCYTDAIDFWGPGTMVTVSSGGGGSGGGGSGGGGSGGGGSEVQLVESGGGVVRPGGSLRLSCSASGFTFDDYGMSWVRQAPGKGLEWVSGIHWNGGNSGYADSVKGRFTISRDNAKNSLYLQMNSLRAEDTALYYCARIPREDCSSASCYTDAIDFWGPGTMVTVSSAAAHHHHHH : provide EC50 (M), NFAT-Luciferase Reporter Gene assay (LAG-3:MHCII)
[A] 1.4e-09

[Q] Name the recorded EC50 (M), NFAT-Luciferase Reporter Gene assay (LAG-3:MHCII) of the binder listed here: VH1.1-12GS-VH1.1-His6 (VHH) EVQLVESGGGVVRPGGSLRLSCSASGFTFDDYGMSWVRQAPGKGLEWVSGIHWNGGNSGYADSVKGRFTISRDNAKNSLYLQMNSLRAEDTALYYCARIPREDCSSASCYTDAIDFWGPGTMVTVSSGGGGSGGGGSGGGGSGGGGSGGGGSGGGGSGGGGSGGGGSGGGGSGGGGSGGGGSGGGGSEVQLVESGGGVVRPGGSLRLSCSASGFTFDDYGMSWVRQAPGKGLEWVSGIHWNGGNSGYADSVKGRFTISRDNAKNSLYLQMNSLRAEDTALYYCARIPREDCSSASCYTDAIDFWGPGTMVTVSSAAAHHHHHH
[A] 3.3e-09

[Q] Please give the documented EC50 (M), NFAT-Luciferase Reporter Gene assay (LAG-3:MHCII) of VH1.1-8GS-VH1.1-His6 (VHH) EVQLVESGGGVVRPGGSLRLSCSASGFTFDDYGMSWVRQAPGKGLEWVSGIHWNGGNSGYADSVKGRFTISRDNAKNSLYLQMNSLRAEDTALYYCARIPREDCSSASCYTDAIDFWGPGTMVTVSSGGGGSGGGGSGGGGSGGGGSGGGGSGGGGSGGGGSGGGGSEVQLVESGGGVVRPGGSLRLSCSASGFTFDDYGMSWVRQAPGKGLEWVSGIHWNGGNSGYADSVKGRFTISRDNAKNSLYLQMNSLRAEDTALYYCARIPREDCSSASCYTDAIDFWGPGTMVTVSSAAAHHHHHH
[A] 5.4e-09
